# Test system: anesthetized rats (evoked responses of anterior tibial muscle)
# experiment_notes: In vivo neuromuscular block and cardiovascular side effects, anesthetized rat (Example 8, Table 3)
# settings: rat; time to 80-85% neuromuscular block
property_label: Onset (min)

molecule: COc1ccc(OC)c(C[N+]2(C)C3CCC2CC(OC(=O)C2C4C=CC(C4)C2C(=O)OC2CC4CCC(C2)[N+]4(C)Cc2cc(OC)ccc2OC)C3)c1.[Br-].[Br-] (stereo not drawn)
measured_on: anesthetized rats (evoked responses of anterior tibial muscle)
property_label: Onset
readout_unit: min
assay_value: 1
--
molecule: COc1cc(C[N+]2(C)[C@@H]3CC[C@H]2C[C@@H](OC(=O)CCCCCCCCCC(=O)O[C@H]2C[C@H]4CC[C@@H](C2)[N+]4(C)Cc2cc(OC)c(OC)c(OC)c2)C3)cc(OC)c1OC.[Br-].[Br-] (stereo partly drawn)
measured_on: anesthetized rats (evoked responses of anterior tibial muscle)
property_label: Onset
readout_unit: min
assay_value: 0.8
--
molecule: COc1cc(C[N+]2(C)C3CCC2CC(OC(=O)C2C4C=CC(C4)C2C(=O)OC2CC4CCC(C2)[N+]4(C)Cc2ccc(OC(C)=O)c(OC)c2)C3)ccc1OC(C)=O.[Br-].[Br-] (stereo not drawn)
measured_on: anesthetized rats (evoked responses of anterior tibial muscle)
property_label: Onset
readout_unit: min
assay_value: 0.55

###

# Test system: dogs
# experiment_notes: animal or person
# Format: in vivo
# settings: Canis lupus familiaris; dog; intravenous dose causing 50% neuromuscular block; read-out: ED50
Listing of recorded ED50 by entry.

compound: COc1cc(C[N+]2(C)[C@@H]3CC[C@H]2C[C@@H](OC(=O)C2CCCC(C(=O)O[C@H]4C[C@H]5CC[C@@H](C4)[N+]5(C)Cc4ccc(OC(C)=O)c(OC)c4)C2)C3)ccc1OC(C)=O.[Br-].[Br-] (stereo partly drawn)
ED50 (mg/kg): 0.28
//
compound: CC(=O)Oc1ccc(C[N+]2(C)[C@@H]3CC[C@H]2C[C@@H](OC(=O)C2CCC2C(=O)O[C@H]2C[C@H]4CC[C@@H](C2)[N+]4(C)Cc2ccc(OC(C)=O)c(OC(C)=O)c2)C3)cc1OC(C)=O.[Br-].[Br-] (stereo partly drawn)
ED50 (mg/kg): 0.1
//
compound: C=CC[N+]1([C@H]2C[C@H]3[C@@H]4CC[C@H]5C[C@H](O)[C@@H](N6CCOCC6)C[C@]5(C)[C@H]4CC[C@]3(C)[C@H]2OC(C)=O)CCCC1 [Rocuronium, reference compound]
ED50 (mg/kg): 0.076
//
compound: CC(=O)Oc1ccc(C[N+]2(C)[C@@H]3CC[C@H]2C[C@@H](OC(=O)CCCC(=O)O[C@H]2C[C@H]4CC[C@@H](C2)[N+]4(C)Cc2ccc(OC(C)=O)c(OC(C)=O)c2)C3)cc1OC(C)=O.[Br-].[Br-] (stereo partly drawn)
ED50 (mg/kg): 0.11
//
compound: CC(=O)Oc1ccc(C[N+]2(C)[C@@H]3CC[C@H]2C[C@@H](OC(=O)C2CCCC(C(=O)O[C@H]4C[C@H]5CC[C@@H](C4)[N+]5(C)Cc4ccc(OC(C)=O)c(OC(C)=O)c4)C2)C3)cc1OC(C)=O.[Br-].[Br-] (stereo partly drawn)
ED50 (mg/kg): 0.128
//
compound: COc1cc(C[N+]2(C)[C@@H]3CC[C@H]2C[C@@H](OC(=O)C2CCC2C(=O)O[C@H]2C[C@H]4CC[C@@H](C2)[N+]4(C)Cc2ccc(OC(C)=O)c(OC)c2)C3)ccc1OC(C)=O.[Br-].[Br-] (stereo partly drawn)
ED50 (mg/kg): 0.145

###

# Test system: anesthetized cats (evoked responses of anterior tibial muscle)
# experiment_notes: animal or person
# settings: cat; at 80-85% neuromuscular blocking dose
Listing of recorded ΔBP (change in arterial blood pressure) by entry.
property_label: ΔBP (change in arterial blood pressure) (%)

compound: C[N+]1(CC2CC2)[C@@H]2CC[C@H]1C[C@@H](OC(=O)CCCCCCC(=O)O[C@H]1C[C@H]3CC[C@@H](C1)[N+]3(C)CC1CC1)C2.[Br-].[Br-] (stereo partly shown) [reference compound]
property_label: ΔBP (change in arterial blood pressure)
assay_value: 0
--
compound: CC(=O)Oc1ccc(C[N+]2(C)[C@@H]3CC[C@H]2C[C@@H](OC(=O)CCCC(=O)O[C@H]2C[C@H]4CC[C@@H](C2)[N+]4(C)Cc2ccc(OC(C)=O)c(OC(C)=O)c2)C3)cc1OC(C)=O.[Br-].[Br-] (stereo partly shown)
property_label: ΔBP (change in arterial blood pressure)
assay_value: 0
--
compound: CC(=O)Oc1ccc(C[N+]2(C)[C@@H]3CC[C@H]2C[C@@H](OC(=O)C2CCC2C(=O)O[C@H]2C[C@H]4CC[C@@H](C2)[N+]4(C)Cc2ccc(OC(C)=O)c(OC(C)=O)c2)C3)cc1OC(C)=O.[Br-].[Br-] (stereo partly shown)
property_label: ΔBP (change in arterial blood pressure)
assay_value: 0
--
compound: COc1cc(C[N+]2(C)[C@@H]3CC[C@H]2C[C@@H](OC(=O)C2CCCC(C(=O)O[C@H]4C[C@H]5CC[C@@H](C4)[N+]5(C)Cc4ccc(OC(C)=O)c(OC)c4)C2)C3)ccc1OC(C)=O.[Br-].[Br-] (stereo partly shown)
property_label: ΔBP (change in arterial blood pressure)
assay_value: −5
--
compound: CC(=O)Oc1ccc(C[N+]2(C)[C@@H]3CC[C@H]2C[C@@H](OC(=O)C2CCCC(C(=O)O[C@H]4C[C@H]5CC[C@@H](C4)[N+]5(C)Cc4ccc(OC(C)=O)c(OC(C)=O)c4)C2)C3)cc1OC(C)=O.[Br-].[Br-] (stereo partly shown)
property_label: ΔBP (change in arterial blood pressure)
assay_value: −25
--
compound: COc1cc(C[N+]2(C)[C@@H]3CC[C@H]2C[C@@H](OC(=O)C2CCC2C(=O)O[C@H]2C[C@H]4CC[C@@H](C2)[N+]4(C)Cc2ccc(OC(C)=O)c(OC)c2)C3)ccc1OC(C)=O.[Br-].[Br-] (stereo partly shown)
property_label: ΔBP (change in arterial blood pressure)
assay_value: 0
--
compound: C[N+]1(C)[C@@H]2CC[C@H]1C[C@@H](OC(=O)CCCCCCCCC(=O)O[C@H]1C[C@H]3CC[C@@H](C1)[N+]3(C)C)C2.[I-].[I-] [reference compound]
property_label: ΔBP (change in arterial blood pressure)
assay_value: 0

###

Listing of recorded VB (vagal block) by entry.
# Test system: anesthetized rats (evoked responses of anterior tibial muscle)
# experiment_notes: In vivo neuromuscular block and cardiovascular side effects, anesthetized rat (Example 8, Table 3)
# settings: rat; at 80-85% neuromuscular blocking dose

molecule: COc1cc(C[N+]2(C)[C@@H]3CC[C@H]2C[C@@H](OC(=O)CCCCCCCCCC(=O)O[C@H]2C[C@H]4CC[C@@H](C2)[N+]4(C)Cc2cc(OC)c(OC(C)=O)c(OC)c2)C3)cc(OC)c1OC(C)=O.[Br-].[Br-] (stereo partly drawn)
measured_on: anesthetized rats (evoked responses of anterior tibial muscle)
readout_unit: %
VB (vagal block): 99
//
molecule: CC(=O)Oc1ccc(C[N+]2(C)[C@@H]3CC[C@H]2C[C@@H](OC(=O)CCCC(=O)O[C@H]2C[C@H]4CC[C@@H](C2)[N+]4(C)Cc2ccc(OC(C)=O)c(OC(C)=O)c2)C3)cc1OC(C)=O.[Br-].[Br-] (stereo partly drawn)
measured_on: anesthetized rats (evoked responses of anterior tibial muscle)
readout_unit: %
VB (vagal block): 10
//
molecule: COc1cc(C[N+]2(C)C3CCC2CC(OC(=O)C2C4C=CC(C4)C2C(=O)OC2CC4CCC(C2)[N+]4(C)Cc2cc(OC)c(OC(C)=O)c(OC)c2)C3)cc(OC)c1OC(C)=O.[Br-].[Br-] (stereo not drawn)
measured_on: anesthetized rats (evoked responses of anterior tibial muscle)
readout_unit: %
VB (vagal block): 20
//
molecule: C[N+]1(Cc2ccccc2Br)[C@@H]2CC[C@H]1C[C@@H](OC(=O)CCCC(=O)O[C@H]1C[C@H]3CC[C@@H](C1)[N+]3(C)Cc1ccccc1Br)C2.[Br-].[Br-] (stereo partly drawn) [reference compound]
measured_on: anesthetized rats (evoked responses of anterior tibial muscle)
readout_unit: %
VB (vagal block): 100
//
molecule: CC(=O)Oc1ccc(C[N+]2(C)[C@@H]3CC[C@H]2C[C@@H](OC(=O)C2CCCC(C(=O)O[C@H]4C[C@H]5CC[C@@H](C4)[N+]5(C)Cc4ccc(OC(C)=O)c(OC(C)=O)c4)C2)C3)cc1OC(C)=O.[Br-].[Br-] (stereo partly drawn)
measured_on: anesthetized rats (evoked responses of anterior tibial muscle)
readout_unit: %
VB (vagal block): 28
//
molecule: CCC(=O)Oc1ccc(C[N+]2(C)[C@@H]3CC[C@H]2C[C@@H](OC(=O)C2CCC2C(=O)O[C@H]2C[C@H]4CC[C@@H](C2)[N+]4(C)Cc2ccc(OC(=O)CC)c(OC(=O)CC)c2)C3)cc1OC(=O)CC.[Br-].[Br-] (stereo partly drawn)
measured_on: anesthetized rats (evoked responses of anterior tibial muscle)
readout_unit: %
VB (vagal block): 17
//
molecule: COc1cc(C[N+]2(C)[C@@H]3CC[C@H]2C[C@@H](OC(=O)CCCCCCCCCC(=O)O[C@H]2C[C@H]4CC[C@@H](C2)[N+]4(C)Cc2cc(OC)c(OC)c(OC)c2)C3)cc(OC)c1OC.[Br-].[Br-] (stereo partly drawn)
measured_on: anesthetized rats (evoked responses of anterior tibial muscle)
readout_unit: %
VB (vagal block): 10
//
molecule: CC(=O)Oc1ccc(C[N+]2(C)C3CCC2CC(OC(=O)C2C4C=CC(C4)C2C(=O)OC2CC4CCC(C2)[N+]4(C)Cc2ccc(OC(C)=O)c(OC(C)=O)c2)C3)cc1OC(C)=O.[Br-].[Br-] (stereo not drawn) [bis[N-(3,4-diacetoxybenzyl)tropanium-3α-yl]trans-3,6-endomet]
measured_on: anesthetized rats (evoked responses of anterior tibial muscle)
readout_unit: %
VB (vagal block): 32
//
molecule: CCC(=O)Oc1ccc(C[N+]2(C)[C@@H]3CC[C@H]2C[C@@H](OC(=O)CCCC(=O)O[C@H]2C[C@H]4CC[C@@H](C2)[N+]4(C)Cc2ccc(OC(=O)CC)c(OC(=O)CC)c2)C3)cc1OC(=O)CC.[Br-].[Br-] (stereo partly drawn)
measured_on: anesthetized rats (evoked responses of anterior tibial muscle)
readout_unit: %
VB (vagal block): 0

Where these numbers come from: patent US6376510B1
